Reference source for all entries: patent US20210032312A1

# SYSTEM: T1, In house human CD8A-Fc (human, UniProt P01732 22-182, limits assumed)
# T1 construct: Captured on goat anti-human Fc on a ProteOn GLC chip; also called hCD8A-Fc; recombinant human CD8 alpha; not shown: linker with flag (and polyhistidine) tag and Fc of human IgG1
# T1 sequence (P01732 22-182 limits assumed): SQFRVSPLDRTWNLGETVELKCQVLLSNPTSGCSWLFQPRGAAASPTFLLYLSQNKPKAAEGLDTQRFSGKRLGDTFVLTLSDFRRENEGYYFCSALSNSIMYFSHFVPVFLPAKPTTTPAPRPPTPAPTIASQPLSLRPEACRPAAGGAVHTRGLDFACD
# ASSAY_REMARKS: SPR (ProteOn), captured hCD8A-Fc
EXPERIMENTAL_ENDPOINT: koff (s⁻¹)
Expressed in s⁻¹, but write only the number.

Look over these answered cases.
Record summary for P282DR9P1359_D12 (designed binder, FN3 domain) LPAPKNLVVSRVTEDSARLSWTAPDAAFDSFRIAYPETATWGEAIVLTVPGSERSYDLTGLKPGTEYFVIIYGVKGGFESAPLSAIFTT : reported koff = 0.00193

binder P282DR9P1359_F3 (designed binder, FN3 domain) LPAPKNLVVSRVTEDSARLSWTAPDAAFDSFYITYPEWPVQGEAIVLTVPGSERSYDLTGLKPGTEYWVIIYGVKGGTESEPLSAIFTT , koff observed: 0.00106

koff reported for this binder P282DR9P1359_F11 (designed binder, FN3 domain) LPAPKNLVVSRVTEDSARLSWTAPDAAFDSFDIFYPELPIHGEAIVLTVPGSERSYDLTGLKPGTEYWVNITGVKGGDFSWPLSAIFTT : 0.000554

# koff of P282FR9P1361_G9 (designed binder, FN3 domain) LPAPKNLVVSRVTEDSARLSWTAPDAAFDSFGITYWESPYAGEAIVLTVPGSERSYDLTGLKPGTEYGVFILGVKGGYPSAPLSAIFTT = 0.00653

Here is another binder to look at.
Entry P282ER9P1360_F11 (designed binder, FN3 domain) LPAPKNLVVSRVTEDSARLSWIAPDAAFDSFSIAYVEAELVGEAIQLVVPGSERSYDLTGLKPGTEYWVVILGVKGGNPSNPLGASFTT — recorded koff = 0.000225
